Molecular target: Tumor necrosis factor ligand superfamily member 11 (Homo sapiens, UniProt O14788)
Sequence (O14788 140-317 limits assumed): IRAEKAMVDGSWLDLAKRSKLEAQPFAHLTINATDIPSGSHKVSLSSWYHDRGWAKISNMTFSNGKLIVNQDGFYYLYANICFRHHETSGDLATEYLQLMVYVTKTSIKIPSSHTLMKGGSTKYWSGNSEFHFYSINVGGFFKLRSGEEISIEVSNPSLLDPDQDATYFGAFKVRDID
pKd: −log10 of the molar value.

# query-smiles, pKd
rows = [
    ("O=C1C([Se]c2ccccc2)=C([Se]c2ccccc2)C(=O)N1Cc1ccccc1", 6.04),
]

// data source = ChEMBL document CHEMBL6120947
